Experiment: Cytotoxicity against African green monkey Vero cells assessed as concentration required to cause microscopically visible alternation of cell morphology
Type: cell-based
Conditions: chlorocebus sabaeus
EXPERIMENTAL_READOUT: MCC

Completed entries (count: 3):
Field request: MCC | item: O=c1[nH]c(=O)n(C2C=CC(O)C2)cc1-c1ccco1 (centres undefined)
> 100 µM

Which MCC is listed for NC(=O)c1ncn([C@@H]2O[C@H](CO)[C@@H](O)[C@H]2O)n1 ?
> 250 µM

Look at this compound and give its reported MCC. O=c1[nH]c(=O)n(C2C=CC(O)C2)cc1-c1cncs1 (centres undefined)
> 100 µM

Below: the item to evaluate.
Return reported MCC; argument: O=c1[nH]c(=O)n(C2C=CC(O)C2)cc1-c1cccs1 (centres undefined)
20 µM
